Exercise: for every item that follows, state its recorded inhibition.
Target: Adenosine receptor A1 (Homo sapiens) (UniProt P30542)
Sequence (P30542 whole entry): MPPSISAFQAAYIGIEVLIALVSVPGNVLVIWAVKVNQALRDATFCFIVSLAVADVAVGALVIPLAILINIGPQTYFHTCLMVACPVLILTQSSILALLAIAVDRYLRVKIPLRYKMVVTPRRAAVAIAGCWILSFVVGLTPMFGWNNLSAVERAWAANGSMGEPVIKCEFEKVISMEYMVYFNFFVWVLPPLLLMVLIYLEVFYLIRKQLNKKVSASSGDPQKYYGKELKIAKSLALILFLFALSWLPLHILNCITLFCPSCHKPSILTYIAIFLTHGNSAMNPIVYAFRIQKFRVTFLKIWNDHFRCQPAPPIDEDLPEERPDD
Test: Displacement of [3H]-DPCPX from human adenosine A1 receptor expressed in HEK293 cell membranes at 0.1 uM after 90 mins relative to control

Look up and state reported inhibition for `CCCn1c(=O)[nH]c2nc(-c3cnn(CC#Cc4cccc(F)c4)c3)[nH]c2c1=O`
53%

Look up and state reported inhibition for `CCCn1c(=O)c2[nH]c(-c3cnn(CC#Cc4ccc(OC(F)(F)F)cc4)c3)nc2n(CCC)c1=O`
92%

Look up and state reported inhibition for `CCCn1c(=O)c2[nH]c(-c3cnn(CC#Cc4ccc(F)cc4)c3)nc2n(CCC)c1=O`
105%

Look up and state reported inhibition for `CCCn1c(=O)c2[nH]c(-c3cnn(CC#Cc4cccc(F)c4)c3)nc2n(CC)c1=O`
73%

Look up and state reported inhibition for `CCCn1c(=O)[nH]c2nc(-c3cnn(CC#Cc4ccc(F)cc4)c3)[nH]c2c1=O`
77%
